Assay details: Metabolic stability in hepatocytes, human
Format: in vitro ADME
Settings: cryopreserved hepatocytes, read-out: CLint(hep)
Property measured: hepatocyte CLint at 1 μM (µL/min/1e6 cells)

• C=C(F)C(=O)N1CCN(c2nc(OC[C@@]34CCCN3C[C@H](F)C4)nc3c2CO[C@H](c2c(F)c(N)cc(C)c2C(F)(F)F)C3)C[C@@H]1CC#N = 13.9

---

Assay details: Pharmacokinetics by oral administration and intravenous injection in SD rats
Assay type: in vivo
Settings: male, rat, plasma, intravenous injection, 2.0 mg/kg, read-out: Half-life time, T1/2 (converted)
Property measured: half-life (h)

• C=C(F)C(=O)N1CCN(c2nc(OC[C@@]34CCCN3C[C@H](F)C4)nc3c2CO[C@H](c2c(F)c(N)cc(C)c2C(F)(F)F)C3)C[C@@H]1CC#N [Compound of formula (I)] = 1.9
